# maps each entry to its Cytokine IL-12
- System: canine peripheral blood mononuclear cells (cPBMCs)
- experiment: Cytokine production in canine PBMCs by ELISA (Example 2)
- Assay type: cell-based
- cond: ± SD, 20 μM, 29 hours, ELISA, triplicate
assay_readout: Cytokine IL-12 (pg/mL)

molecule	assay_readout	observed
CCOCc1nc2c(N)nc3cc(Cl)ccc3c2n1CC(C)(C)O	Cytokine IL-12	1900
CCOCc1nc2c(N)nc3cc(Cl)ccc3c2n1CC(C)C	Cytokine IL-12	781
CCCCc1nc2c(N)nc3cc(Cl)ccc3c2n1CC(C)C	Cytokine IL-12	760
CCCCc1nc2c(N)nc3cc(OC)ccc3c2n1CC(C)C	Cytokine IL-12	746
CCCCc1nc2c(N)nc3cc(OC)ccc3c2n1CC(C)(C)O	Cytokine IL-12	2000
CCCCc1nc2c(N)nc3cc(C#N)ccc3c2n1CC(C)(C)O	Cytokine IL-12	418
CCOCc1nc2c(N)nc3ccccc3c2n1CC(C)(C)O [Compound 2, resiquimod, reference compound]	Cytokine IL-12	2800
CCOCc1nc2c(N)nc3cc(C#N)ccc3c2n1CC(C)(C)O	Cytokine IL-12	13
CCOCc1nc2c(N)nc3cc(C#N)ccc3c2n1CC(C)C	Cytokine IL-12	190

====

# maps each entry to its pEC50
- target_entity: hTLR8 (Homo sapiens)
- Sequence (Q9NR97 27-1041): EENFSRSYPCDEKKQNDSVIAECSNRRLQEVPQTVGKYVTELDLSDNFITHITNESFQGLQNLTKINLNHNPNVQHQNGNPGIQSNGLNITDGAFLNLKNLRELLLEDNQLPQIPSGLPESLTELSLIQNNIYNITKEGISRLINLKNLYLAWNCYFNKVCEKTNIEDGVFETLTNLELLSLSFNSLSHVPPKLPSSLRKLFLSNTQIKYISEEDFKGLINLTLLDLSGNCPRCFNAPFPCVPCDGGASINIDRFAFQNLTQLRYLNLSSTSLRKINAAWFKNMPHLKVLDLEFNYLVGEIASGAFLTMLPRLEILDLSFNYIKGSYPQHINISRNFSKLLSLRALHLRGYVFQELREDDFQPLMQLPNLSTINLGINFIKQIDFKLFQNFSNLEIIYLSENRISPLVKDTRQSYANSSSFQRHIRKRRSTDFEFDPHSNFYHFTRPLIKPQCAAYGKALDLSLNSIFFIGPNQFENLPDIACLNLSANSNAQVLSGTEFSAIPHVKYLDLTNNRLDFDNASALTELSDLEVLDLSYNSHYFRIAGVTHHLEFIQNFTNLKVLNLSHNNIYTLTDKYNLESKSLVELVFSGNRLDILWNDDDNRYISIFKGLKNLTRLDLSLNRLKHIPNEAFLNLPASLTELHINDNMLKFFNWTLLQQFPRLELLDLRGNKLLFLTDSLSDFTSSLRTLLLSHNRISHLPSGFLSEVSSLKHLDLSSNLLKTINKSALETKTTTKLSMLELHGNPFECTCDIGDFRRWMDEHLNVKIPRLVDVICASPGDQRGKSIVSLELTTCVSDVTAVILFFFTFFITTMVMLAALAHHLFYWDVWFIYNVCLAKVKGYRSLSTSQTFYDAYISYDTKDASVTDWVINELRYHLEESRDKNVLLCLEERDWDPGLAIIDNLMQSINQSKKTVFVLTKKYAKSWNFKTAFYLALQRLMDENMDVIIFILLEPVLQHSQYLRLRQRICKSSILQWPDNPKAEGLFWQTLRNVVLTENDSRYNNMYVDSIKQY
- experiment: SEAP reporter assay for hTLR-8 activity (HEK-Blue hTLR8 cells)
- cond: ± SD; hTLR8 transfected HEK-Blue cells, Null subtracted; three independent measurements; 12 hours; >100 = no activity observed at 100 μM; read-out: EC50 TLR8
pEC50: −log10 of the molar value.

compound	censoring_operator	pEC50
CCCCc1nc2c(N)nc3cc(C#N)ccc3c2n1CC(C)C [Compound 10]	<	4.00
CCCCc1nc2c(N)nc3cc(OC)ccc3c2n1CC(C)C [Compound 4]	<	4.00
CCOCc1nc2c(N)nc3cc(C#N)ccc3c2n1CC(C)C [Compound 11]	<	4.00
CCCCc1nc2c(N)nc3cc(Cl)ccc3c2n1CC(C)C [Compound 6]	<	4.00
CCOCc1nc2c(N)nc3cc(C#N)ccc3c2n1CC(C)(C)O [Compound 13]	=	4.57
CCOCc1nc2c(N)nc3cc(Cl)ccc3c2n1CC(C)(C)O [Compound 9]	=	5.31
CC(C)Cn1cnc2c(N)nc3ccccc3c21 [Compound 1, imiquimod, reference compound]	=	4.60
CCOCc1nc2c(N)nc3cc(Cl)ccc3c2n1CC(C)C [Compound 7]	<	4.00
CCCCc1nc2c(N)nc3cc(OC)ccc3c2n1CC(C)(C)O [Compound 5]	=	5.77
CCCCc1nc2c(N)nc3cc(C#N)ccc3c2n1CC(C)(C)O [Compound 12]	=	5.41
CCCCc1nc2c(N)nc3cc(Cl)ccc3c2n1CC(C)(C)O [Compound 8]	=	5.82
